These entries and their values trace back to patent US20220195023A1.

Recorded pKd values for a group of binders are listed next.
# test.target: (NPNA)3 (Plasmodium falciparum)
# assay.remarks: BLI, target on sensor
// pKd here means minus log10 of the molar concentration (mol/L)

Here are 2 binders together with their reported answers.
Challenge: Requested field: pKd. Item: AB-007049 (antibody, V domains shown) VH: QMQLVESGGGVVQPGRSLRLSCTASGFTFSTYAMHWVRQSPGQGLQWVAVISNHETNKYYEDSVRGRFTISRDNSKNTLYLQMNSLRAEDTAVYYCARDGYSSSFFDFWGQGTLVTVSS VL: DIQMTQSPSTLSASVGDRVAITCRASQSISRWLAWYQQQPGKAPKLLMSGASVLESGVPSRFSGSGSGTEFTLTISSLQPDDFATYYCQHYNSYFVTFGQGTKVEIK
Response given: 9.49

Challenge: Please give the result for AB-007036 (antibody, V domains shown) VH: QMQLVESGGGVVQPGRSLRLSCTASGFTFSTYAMHWVRQSPGQGLQWVAVISYDSTNKYYEDSVRGRFTISRDNSKNTLYLQMNSLRAEDTAVYYCARDGYSSSFFDFWGQGTLVTVSS VL: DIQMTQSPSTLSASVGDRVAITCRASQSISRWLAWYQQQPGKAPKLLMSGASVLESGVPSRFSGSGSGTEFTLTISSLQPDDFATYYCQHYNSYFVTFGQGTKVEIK too.
Response given: 11.42

Next:
Challenge: Requested field: pKd. Item: AB-007063 (antibody, V domains shown) VH: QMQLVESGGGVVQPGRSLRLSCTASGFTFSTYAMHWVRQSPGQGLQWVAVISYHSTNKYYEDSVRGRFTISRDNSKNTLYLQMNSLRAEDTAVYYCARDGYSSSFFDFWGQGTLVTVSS VL: DIQMTQSPSTLSASVGDRVAITCRASQSISRWLAWYQQQPGKAPKLLMAGASVLESGVPSRFSGSGSGTEFTLTISSLQPDDFATYYCQHYNSYFVTFGQGTKVEIK
Response given: 9.16
